The origin of these recorded values is patent US7897568B2.

# tgt: T1, synuclein-gamma (SNCG), recombinant, released from GST-SNCG by thrombin (human, UniProt O76070 1-127)
# T1 construct: 15N-labelled for NMR; also called native SNCG; Breast Cancer Specific Gene 1
# test: intrinsic tyrosine fluorescence of 30 µM SNCG titrated with ANK peptide
measured_parameter: Kd

binder	measured_result
Ac-KGNSALHVASQHGHLGCIQTLVRYGANVTMQNHG-NH2 (For SPR it was immobilised on a CM5 chip by ligand thiol coupling; also called ankyrin repeat-like peptide) [ANK peptide KGNSALHVASQHGHLGCIQTLVRYGANVTMQNHG (SEQ ID NO:1)]	~100 µM
